biological target: EPHB2 (UniProt P29323); experiment: phosphorylation enrichment, bacterial display (enrichment ratio); higher = better substrate or ligand; peptides without Tyr show the background
Sequence (P29323 whole entry, looked up): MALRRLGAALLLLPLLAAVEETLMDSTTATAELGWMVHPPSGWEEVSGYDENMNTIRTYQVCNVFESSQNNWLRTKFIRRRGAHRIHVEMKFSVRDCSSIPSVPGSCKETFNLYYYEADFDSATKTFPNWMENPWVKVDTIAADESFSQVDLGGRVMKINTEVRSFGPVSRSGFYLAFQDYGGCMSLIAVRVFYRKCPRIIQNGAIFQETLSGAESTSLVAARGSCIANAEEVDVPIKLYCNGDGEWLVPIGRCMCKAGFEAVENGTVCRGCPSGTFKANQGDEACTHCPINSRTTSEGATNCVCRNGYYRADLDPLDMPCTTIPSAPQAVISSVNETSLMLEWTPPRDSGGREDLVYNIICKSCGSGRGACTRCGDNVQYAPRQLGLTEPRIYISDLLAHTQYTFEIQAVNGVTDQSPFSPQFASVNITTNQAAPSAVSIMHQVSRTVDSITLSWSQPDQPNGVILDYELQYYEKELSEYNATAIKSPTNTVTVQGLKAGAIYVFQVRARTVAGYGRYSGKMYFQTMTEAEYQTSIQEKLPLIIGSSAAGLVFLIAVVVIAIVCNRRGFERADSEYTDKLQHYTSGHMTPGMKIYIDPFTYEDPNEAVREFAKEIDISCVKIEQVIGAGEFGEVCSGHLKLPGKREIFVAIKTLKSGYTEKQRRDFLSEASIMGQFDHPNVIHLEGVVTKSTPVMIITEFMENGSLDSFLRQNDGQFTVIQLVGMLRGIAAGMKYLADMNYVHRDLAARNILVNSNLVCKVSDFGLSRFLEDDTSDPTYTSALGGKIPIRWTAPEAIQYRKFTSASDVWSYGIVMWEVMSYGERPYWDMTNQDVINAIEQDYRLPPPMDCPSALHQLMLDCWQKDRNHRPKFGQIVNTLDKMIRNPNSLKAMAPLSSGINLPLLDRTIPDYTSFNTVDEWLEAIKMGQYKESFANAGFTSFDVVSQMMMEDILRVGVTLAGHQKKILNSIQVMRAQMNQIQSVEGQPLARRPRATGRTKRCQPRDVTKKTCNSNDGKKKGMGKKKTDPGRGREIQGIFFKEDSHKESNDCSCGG
Given measured phosphorylation enrichment, output fulfilled if it is greater than or equal to 0.6 and not fulfilled if not.

// known answers, use as guide
input_sequence="SRNSKYNAEST [PSEN1_Y315_K311R]" label="not fulfilled"
input_sequence="ETLLFYGCRRS [POR_Y564_YF]" label="not fulfilled"

Query: State whether the measured phosphorylation enrichment reaches 0.6, counting equality as reaching it, for CRPPFYHRNCM [HGD_Y334_F329C_YF]
Result: not fulfilled

Query: And for MSRDVYSTDFF [NTRK2_Y702_YF] ?
Result: fulfilled

---

target: Fes (UniProt P07332); experiment: phosphorylation enrichment, bacterial display (enrichment ratio); higher = better substrate or ligand; peptides without Tyr show the background
Sequence (P07332 whole entry, looked up): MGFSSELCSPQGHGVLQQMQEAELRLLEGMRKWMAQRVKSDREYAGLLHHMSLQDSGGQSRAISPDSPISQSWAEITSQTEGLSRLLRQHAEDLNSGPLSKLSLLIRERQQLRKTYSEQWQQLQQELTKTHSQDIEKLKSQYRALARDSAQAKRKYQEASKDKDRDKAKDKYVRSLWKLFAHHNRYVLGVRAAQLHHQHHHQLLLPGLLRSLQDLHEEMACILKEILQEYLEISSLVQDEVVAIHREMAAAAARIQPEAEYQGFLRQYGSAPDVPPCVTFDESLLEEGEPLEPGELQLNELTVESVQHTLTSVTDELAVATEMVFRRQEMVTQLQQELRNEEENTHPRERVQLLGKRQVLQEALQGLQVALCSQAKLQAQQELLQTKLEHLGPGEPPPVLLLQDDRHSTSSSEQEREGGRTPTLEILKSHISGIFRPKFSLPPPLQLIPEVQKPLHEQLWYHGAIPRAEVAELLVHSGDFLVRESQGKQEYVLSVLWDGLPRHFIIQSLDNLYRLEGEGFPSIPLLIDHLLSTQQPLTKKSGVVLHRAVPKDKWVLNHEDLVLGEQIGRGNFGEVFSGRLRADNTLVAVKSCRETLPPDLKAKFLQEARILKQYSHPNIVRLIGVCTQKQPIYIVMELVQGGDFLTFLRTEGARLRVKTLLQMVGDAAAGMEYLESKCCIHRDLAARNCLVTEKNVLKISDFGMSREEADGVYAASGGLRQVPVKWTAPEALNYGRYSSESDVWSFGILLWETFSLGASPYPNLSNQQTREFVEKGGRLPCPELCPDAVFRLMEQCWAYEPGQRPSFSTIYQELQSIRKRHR
The entries below come with measured phosphorylation enrichment values attached.
Just the number.

Query: Consider the sequence IIRQLYLKWHP [SACS_Y4333_R4331Q] and give its measured phosphorylation enrichment.
Result: 1.02

Query: Field entry: HKNNNYEPSLF [BRCA2_Y57_N60S]
Result: 1

Query: Also FSEVRYMKEPY [HIPK4_Y170_V171M] ?
Result: 0.988

Query: Entry CTTIHYSFMCN [TP53_Y234_N235S_YF] please
Result: 1

---

Catalogue of sequences with associated phosphorylation enrichment
biological target: EPHB2 (UniProt P29323); test: phosphorylation enrichment, bacterial display (enrichment ratio); higher = better substrate or ligand; peptides without Tyr show the background
Kindly provide the number alone.

Some entries whose results are on file:
input_sequence="AGADGYDFLAP [FOXL2_Y186_G187D_YF]" system_under_test="EPHB2 (UniProt P29323)" experimental_endpoint="phosphorylation enrichment" assay_result=0.645
input_sequence="QRRYLYYYSYL [PTEN_Y176_V175L]" system_under_test="EPHB2 (UniProt P29323)" experimental_endpoint="phosphorylation enrichment" assay_result=1.12
input_sequence="TVSSDYLHPQF [CCPG1_Y569_F566S_YF]" system_under_test="EPHB2 (UniProt P29323)" experimental_endpoint="phosphorylation enrichment" assay_result=0.538
input_sequence="IHFAIYLLKFS [ARMC9_Y107_YF]" system_under_test="EPHB2 (UniProt P29323)" experimental_endpoint="phosphorylation enrichment" assay_result=0.457
input_sequence="QEGPEYWDEET [HLA-A_Y83_Q86E]" system_under_test="EPHB2 (UniProt P29323)" experimental_endpoint="phosphorylation enrichment" assay_result=1.25

Query: For EPHB2 (UniProt P29323), provide phosphorylation enrichment of TKDTFYKQPVF [GBA_Y451_M455V] please.
Result: 0.523

Query: // next record FETVKYFNNER [ABCB7_Y345_YF]
Result: 0.445

Query: Param item: VDTFWYKLLKR [EPM2A_Y86_F88L]
Result: 0.548

Query: Please give the result for NRVEIYEKTVE [CYFIP1_Y108] too.
Result: 0.654

---

target: SHP2-C SH2; test: SH2 binding enrichment of the phosphorylated peptide, bacterial display (enrichment ratio); higher = better substrate or ligand; peptides without Tyr show the background;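 note: peptide library displayed on the E. coli surface as eCPX fusions, selected cells deep-sequenced, score is each peptide's frequency after selection divided by its frequency in the input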
Each entry below carries its reported SH2 binding enrichment.

input_sequence="TTKAKYKTPTF [PLD2_Y573_YF]" experimental_endpoint="SH2 binding enrichment" assay_result=0.693
input_sequence="LTTEVYFPSIK [C5orf64_Y60_A57T]" experimental_endpoint="SH2 binding enrichment" assay_result=0.885
input_sequence="SHNELYYEAAE [VANGL1_Y344_E347A]" experimental_endpoint="SH2 binding enrichment" assay_result=0.922

Pending sequence:
Query: What SH2 binding enrichment value was documented for this sequence, QEGPEYWDRNT [HLA-B_Y83] ?
Result: 0.711

---

test system: c-Abl (mouse); assay: phosphorylation enrichment, bacterial display (enrichment ratio); higher = better substrate or ligand; peptides without Tyr show the background
Each entry below carries its reported phosphorylation enrichment.
No unit in the answer, please; the number alone is enough.

Illustrative cases are given below, each with its answer.
input_sequence="LKGQVDILGRE [ASS1_Y359_Y359D]" assay_result=0.658
input_sequence="ENKGVYVLMSG [IVD_Y277]" assay_result=0.739
input_sequence="TWEKPYECVQC [ZNF24_Y335_G331W]" assay_result=0.534
input_sequence="GVYSRHFTTYD [CLCA1_Y661_Y661H]" assay_result=0.359

Query: If you can, please state the reported phosphorylation enrichment value of FRQNGYIPGSN [PCDHGA1_Y895_V894G_YF] .
Result: 0.499

---

biological target: FGFR3 (UniProt P22607); test: phosphorylation enrichment, bacterial display (enrichment ratio); higher = better substrate or ligand; peptides without Tyr show the background
Sequence (P22607 whole entry, looked up): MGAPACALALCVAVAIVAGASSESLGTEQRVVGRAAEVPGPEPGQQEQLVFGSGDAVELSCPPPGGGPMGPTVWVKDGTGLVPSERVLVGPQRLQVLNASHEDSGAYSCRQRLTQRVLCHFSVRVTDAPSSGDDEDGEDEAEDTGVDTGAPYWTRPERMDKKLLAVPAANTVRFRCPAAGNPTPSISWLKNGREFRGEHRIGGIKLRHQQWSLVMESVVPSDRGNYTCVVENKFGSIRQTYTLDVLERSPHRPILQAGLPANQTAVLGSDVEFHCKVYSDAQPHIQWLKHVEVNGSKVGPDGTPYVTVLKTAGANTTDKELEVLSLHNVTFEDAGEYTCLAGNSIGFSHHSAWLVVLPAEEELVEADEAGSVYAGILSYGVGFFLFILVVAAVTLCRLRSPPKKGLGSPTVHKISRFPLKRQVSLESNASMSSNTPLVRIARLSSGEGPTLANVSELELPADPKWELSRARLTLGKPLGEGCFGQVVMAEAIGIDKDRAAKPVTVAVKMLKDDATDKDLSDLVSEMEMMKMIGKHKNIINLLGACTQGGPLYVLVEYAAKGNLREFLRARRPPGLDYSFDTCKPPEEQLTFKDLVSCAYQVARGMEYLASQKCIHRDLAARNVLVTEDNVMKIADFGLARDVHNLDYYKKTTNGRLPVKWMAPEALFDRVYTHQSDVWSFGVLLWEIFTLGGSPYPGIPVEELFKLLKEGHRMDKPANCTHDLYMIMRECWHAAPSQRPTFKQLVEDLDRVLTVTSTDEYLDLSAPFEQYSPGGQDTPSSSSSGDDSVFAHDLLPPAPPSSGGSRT
EXPERIMENTAL ENDPOINT: phosphorylation enrichment
Keep the answer to the number alone.

Recorded results for 4 sequences are shown here.
input_sequence="KDPPDYKFQPR [SOX9_Y172_H169P_YF]" assay_result=0.527
input_sequence="IIQRAYRRHLL [SCN1A_Y1926]" assay_result=0.525
input_sequence="LGGAMYFLEAD [PKHD1_Y452_E457D_YF]" assay_result=0.77
input_sequence="SDLTDYLMKIL [ACTA1_Y190_R185S]" assay_result=0.732

Query: Bench note: what phosphorylation enrichment did HAVFVYDICHV [TWNK_Y508_YF] show?
Result: 1.05

Query: Ok, now LNARHYGGLTG [PGAM2_Y92_E89A]
Result: 0.513

Query: And the next one, EEGEEYGGGGG [TUBA1A_Y451] ?
Result: 0.701

Query: Ok, now CASQLCPRHKH [DCTN4_Y263_Y263C]
Result: 0.332

Query: Try this sequence next: VDTFWYKLLKR [EPM2A_Y86_F88L]
Result: 0.644

Query: Same for MGGSLYFSYPD [HIKESHI_Y55_V54L]
Result: 3.12

---

target: MERTK (UniProt Q12866); assay: phosphorylation enrichment, bacterial display (enrichment ratio); higher = better substrate or ligand; peptides without Tyr show the background
Sequence (Q12866 whole entry, looked up): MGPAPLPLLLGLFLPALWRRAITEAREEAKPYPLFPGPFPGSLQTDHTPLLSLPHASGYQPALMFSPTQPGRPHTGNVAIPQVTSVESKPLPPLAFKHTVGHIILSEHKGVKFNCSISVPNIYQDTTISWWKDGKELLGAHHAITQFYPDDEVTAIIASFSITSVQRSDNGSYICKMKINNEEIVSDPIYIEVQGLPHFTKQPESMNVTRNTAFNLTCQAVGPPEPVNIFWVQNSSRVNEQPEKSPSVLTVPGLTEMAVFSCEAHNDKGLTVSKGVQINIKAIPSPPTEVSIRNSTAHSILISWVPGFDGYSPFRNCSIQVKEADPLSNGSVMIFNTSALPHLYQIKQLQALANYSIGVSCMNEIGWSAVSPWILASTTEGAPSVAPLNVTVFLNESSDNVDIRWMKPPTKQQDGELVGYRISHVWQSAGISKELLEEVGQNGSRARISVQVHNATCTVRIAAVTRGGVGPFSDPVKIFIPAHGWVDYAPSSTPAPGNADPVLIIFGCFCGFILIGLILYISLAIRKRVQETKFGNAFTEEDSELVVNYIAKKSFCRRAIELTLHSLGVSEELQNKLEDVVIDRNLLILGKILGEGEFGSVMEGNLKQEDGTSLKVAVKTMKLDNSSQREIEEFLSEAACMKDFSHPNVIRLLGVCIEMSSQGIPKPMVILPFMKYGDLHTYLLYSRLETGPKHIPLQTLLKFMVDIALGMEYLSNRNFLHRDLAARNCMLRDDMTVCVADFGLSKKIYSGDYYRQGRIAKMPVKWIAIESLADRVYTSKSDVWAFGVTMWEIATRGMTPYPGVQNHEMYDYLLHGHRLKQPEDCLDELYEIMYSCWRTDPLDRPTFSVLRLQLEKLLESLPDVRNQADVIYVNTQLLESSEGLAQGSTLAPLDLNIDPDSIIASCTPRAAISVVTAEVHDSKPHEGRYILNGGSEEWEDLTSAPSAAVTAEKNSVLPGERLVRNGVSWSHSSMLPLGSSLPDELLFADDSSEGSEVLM
The following sequences are shown together with reported phosphorylation enrichment values.
I'd appreciate a reply containing only the number, no unit.

input_sequence="KNEKVYTRHGV [FLOT1_Y56_S52N]" assay_result=0.375
input_sequence="KRGASYILKLA [SERPINB1_Y84]" assay_result=0.421
input_sequence="WHFTFYNELRV [ACTC1_Y93_H90Y_YF]" assay_result=0.392
input_sequence="APRKVYDTRDD [ZFPL1_Y215]" assay_result=0.372
input_sequence="HIAKGYRRDNP [HARS1_Y156_V155G]" assay_result=0.399

Query: # phosphorylation enrichment lookup, item QEGPEYWDEET [HLA-A_Y83_Q86E]
Result: 1.07

Query: Further, for EFKDAYTFAAD [BRDT_Y335_K336T_YF] ?
Result: 0.456

Query: What do we get for VDLIVYLWTNP [TK2_Y181_R183W] ?
Result: 0.397

---

Measured phosphorylation enrichment values are reported for all entries that follow.
target: EPHB2 (UniProt P29323); test: phosphorylation enrichment, bacterial display (enrichment ratio); higher = better substrate or ligand; peptides without Tyr show the background
Just the number, please.

input_sequence="NIISFYLSRDP [CTSD_Y232_F229I]" assay_result=0.498

Query: Which measured phosphorylation enrichment value corresponds to MKALGYFAVGT [OPA1_Y498_V502G] ?
Result: 0.486

Query: Lookup HKNNNYEPSLF [BRCA2_Y57_N60S]
Result: 0.766

Query: Same question, RNVFFYSFLLK [PTEN_Y178_Y174N_YF] this time
Result: 0.738

---

target: FGFR3 (UniProt P22607); test: phosphorylation enrichment, bacterial display (enrichment ratio); higher = better substrate or ligand; peptides without Tyr show the background
T means recorded phosphorylation enrichment is 0.8 or above; F means it is below 0.8.

input_sequence="ITLKGYNLSNS [GNPTAB_Y728_K732N]" system_under_test="FGFR3 (UniProt P22607)" label=F

Query: Hi team, for RVLHNYLVWRV [ECEL1_Y400] , is the recorded phosphorylation enrichment at or above 0.8?
Result: T

Query: Now give it for ADGLEYSRTEL [MMUT_Y287_G291E] too.
Result: F

Query: Okay, and LINPKYSVEEE [PCDH19_Y27_L25P] ?
Result: T

Query: And for RFLRGYHQDAY [HLA-A_Y137_R138H] ?
Result: T

---

system: c-Src; assay: phosphorylation enrichment, bacterial display (enrichment ratio); higher = better substrate or ligand; peptides without Tyr show the background
param class (str): category from phosphorylation enrichment; see ranges low interval = under 0.5, middle interval = from 0.5 up to 2, high interval = 2 and over

Solved entries:
input_sequence="MSRDVYSTDFF [NTRK2_Y702_YF]" label="high interval"
input_sequence="LAGRYYALKSM [CKB_Y174]" label="middle interval"
input_sequence="YRKNTYNVKST [SYNE2_Y575_I574T]" label="low interval"

Query: Category of RMDGTYACSFT [FLNB_Y704_YF] , please.
Result: high interval

Query: Try this sequence next: LGRKLYSIAAP [ABHD12_Y345]
Result: middle interval
